Assay: Solubility pre-screen of peptides
Details: pre-screened for solubility in an aqueous, acidic milieu; YES/NO
Where a SMILES comes first, the peptide text is derived from it.
METRIC_NAME: Solubility test

MOLECULE	VALUE_REPORTED
CSCC[C@H](NC(=O)[C@@H]1CCCN1C(=O)[C@H](CC(=O)O)NC(=O)[C@H](Cc1ccccc1)NC(=O)[C@@H](NC(=O)[C@@H](N)CCC(=O)O)[C@@H](C)O)C(=O)N[C@@H](CCCCN)C(=O)N[C@H](C(=O)N1CCC[C@H]1C(=O)N[C@@H](CC(=O)O)C(=O)N[C@@H](Cc1c[nH]cn1)C(=O)N[C@@H](CO)C(=O)N[C@@H](CC(=O)O)C(=O)O)C(C)C [HDM29] (H-ETFDPMKVPDHSD-OH; N-terminus and C-terminus assumed)	YES
CC(C)[C@H](NC(=O)[C@H](Cc1ccc(O)cc1)NC(=O)[C@@H](N)CCCNC(=N)N)C(=O)N[C@@H](C)C(=O)N[C@@H](CCCNC(=N)N)C(=O)N[C@@H](CCC(=O)O)C(=O)N[C@@H](CCC(N)=O)C(=O)N[C@@H](CO)C(=O)N[C@@H](CS)C(=O)N[C@@H](CCCNC(=N)N)C(=O)N[C@@H](CCCNC(=N)N)C(=O)N1CCC[C@H]1C(=O)N[C@@H](CC(N)=O)C(=O)O [HDM06] (H-RYVAREQSCRRPN-OH; N-terminus and C-terminus assumed)	YES

---

Test: Precipitation in aqueous solution of the binding assay
Type: physicochemical
Settings: lowest concentration at which an insoluble white precipitate is seen in the aqueous solution of the binding assay
Task for the reader: assign each of the following sequences its reported Precipitation in assay.
Please state the figure in µM; there is no need to write the unit.

Given VSMEYDLAYKLGDLH [HDM40A] , state its recorded Precipitation in assay.
10000

Given HDDVVSMEYDLAYKL [HDM39A] , state its recorded Precipitation in assay.
10000

---

Test: Solubility pre-screen of peptides
Conditions: pre-screened for solubility in an aqueous, acidic milieu; YES/NO
Where a SMILES comes first, the peptide text is derived from it.

COMPOUND	Solubility test
CC[C@H](C)[C@H](NC(=O)[C@H](CC(N)=O)NC(=O)[C@@H](N)CCCNC(=N)N)C(=O)N[C@@H](CCC(N)=O)C(=O)N[C@H](C(=O)N[C@@H](CCCNC(=N)N)C(=O)NCC(=O)N[C@@H](CC(C)C)C(=O)N[C@@H](CCCCN)C(=O)N[C@@H](CCC(N)=O)C(=O)N[C@@H](CCSC)C(=O)N[C@@H](CCCCN)C(=O)N[C@@H](CCCNC(=N)N)C(=O)N[C@H](C(=O)NCC(=O)O)C(C)C)C(C)C [HDM34] (H-RNIQVRGLKQMKRVG-OH; N-terminus and C-terminus assumed)	YES
CC[C@H](C)[C@H](N)C(=O)N[C@@H](CC(=O)O)C(=O)N[C@@H](CC(C)C)C(=O)N[C@@H](CCCCN)C(=O)NCC(=O)N[C@@H](CCC(=O)O)C(=O)N[C@@H](CC(C)C)C(=O)N[C@@H](CC(=O)O)C(=O)N[C@@H](CCSC)C(=O)N[C@@H](CCCNC(=N)N)C(=O)N[C@@H](CC(N)=O)C(=O)N[C@H](C(=O)N[C@@H](CCC(N)=O)C(=O)O)[C@@H](C)CC [HDM32] (H-IDLKGELDMRNIQ-OH; N-terminus and C-terminus assumed)	YES
